# assayed.system: T1, DLG3_2, Q92796
# T1 sequence (Q92796 221-321, limits assumed, looked up): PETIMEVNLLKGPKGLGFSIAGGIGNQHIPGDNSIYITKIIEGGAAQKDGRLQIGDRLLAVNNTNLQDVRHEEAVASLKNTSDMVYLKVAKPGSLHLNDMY
# assay.details: holdup assay
# Parameters: key: below the threshold = too weak to quantify, mostly under pKd 3.1 to 4
# protocol.conditions: plain residues with an end cap or a label only (N-terminal biotin on a linker: ado-ado)
measured.quantity: pKd
Keep the answer to the number alone.

binder	measured.quantity	value.reported
DPAESMESLV [PTPRG, P23470]	pKd	4.72

Which pKd reading was recorded for the binder PYSESDDDWC [CACNA1A, O00555] ?
4.16

Another: EDPRVEVTQF [SLC22A9, Q8IVM8]
4.17

Another: PTPDLPQTRV [KLHDC7A, Q5VTJ3]
4

Another: SPDRDRESIV [SCN5A, Q14524]
4.57

Another: QKAPTKEFYA [SDC2, P34741]
4.18

Another: VLYPREGTEV [FOXI1, Q12951]
4.59
